# Assay details: Pharmacokinetic study in ICR mice (oral gavage and intravenous, plasma LC-MS/MS)
# Format: in vivo
# Test conditions: mouse, plasma; male ICR mice, iv. 10mg/kg; read-out: AUCINF_obs
Below is a list of entries, each paired with its recorded AUC(0-inf) value.
Result type: AUC(0-inf) (ng·h/mL)

C=CCNc1cc(NC[C@H]2CCNC[C@@H]2O)nc2c(C(C)C)cnn12 : 3020
C#CCNc1cc(NC[C@H]2CCNC[C@@H]2O)nc2c(C(C)C)cnn12 : 1600
CC(C)c1cnn2c(NCc3ccccc3)cc(NC[C@H]3CCNC[C@@H]3O)nc12 [CT7001, reference compound] : 8400

* * *

# Assay details: Pharmacokinetic study in ICR mice (oral gavage and intravenous, plasma LC-MS/MS)
# Type: in vivo
# Test conditions: mouse, plasma; male ICR mice, po. 10mg/kg
Below is a list of entries, each paired with its recorded MRT last value.
Result type: MRT last (h)

C#CCNc1cc(NC[C@H]2CCNC[C@@H]2O)nc2c(C(C)C)cnn12 : 2.4
C=CCNc1cc(NC[C@H]2CCNC[C@@H]2O)nc2c(C(C)C)cnn12 : 2.5
CC(C)c1cnn2c(NCc3ccccc3)cc(NC[C@H]3CCNC[C@@H]3O)nc12 [CT7001, reference compound] : 3.6

* * *

Below is a list of entries, each paired with its recorded Tmax value.
# Assay details: Pharmacokinetic study in ICR mice (oral gavage and intravenous, plasma LC-MS/MS)
# Assay type: in vivo
# Test conditions: mouse, plasma; male ICR mice, po. 10mg/kg
Result type: Tmax (h)

CC(C)c1cnn2c(NCc3ccccc3)cc(NC[C@H]3CCNC[C@@H]3O)nc12 [CT7001, reference compound] : 2
C=CCNc1cc(NC[C@H]2CCNC[C@@H]2O)nc2c(C(C)C)cnn12 : 2
C#CCNc1cc(NC[C@H]2CCNC[C@@H]2O)nc2c(C(C)C)cnn12 : 0.5

* * *

# Assay details: Pharmacokinetic study in ICR mice (oral gavage and intravenous, plasma LC-MS/MS)
# Assay type: in vivo
# Test conditions: mouse, plasma; male ICR mice, iv. 10mg/kg
Below is a list of entries, each paired with its recorded AUC(0-t) value.
Result type: AUC(0-t) (ng·h/mL)

C#CCNc1cc(NC[C@H]2CCNC[C@@H]2O)nc2c(C(C)C)cnn12 : 1510
C=CCNc1cc(NC[C@H]2CCNC[C@@H]2O)nc2c(C(C)C)cnn12 : 2960
CC(C)c1cnn2c(NCc3ccccc3)cc(NC[C@H]3CCNC[C@@H]3O)nc12 [CT7001, reference compound] : 8120
